Attribution: patent US20250051344A1

target: SMARCA2 (Homo sapiens); construct: endogenous in cells; assay: SMARCA2 Cellular Degradation Assay (Western blot analysis on Jess platform); format: cell-based; details: ratio DC50 SMARCA4 / DC50 SMARCA2
Sequence (P51531 whole entry, species assumed): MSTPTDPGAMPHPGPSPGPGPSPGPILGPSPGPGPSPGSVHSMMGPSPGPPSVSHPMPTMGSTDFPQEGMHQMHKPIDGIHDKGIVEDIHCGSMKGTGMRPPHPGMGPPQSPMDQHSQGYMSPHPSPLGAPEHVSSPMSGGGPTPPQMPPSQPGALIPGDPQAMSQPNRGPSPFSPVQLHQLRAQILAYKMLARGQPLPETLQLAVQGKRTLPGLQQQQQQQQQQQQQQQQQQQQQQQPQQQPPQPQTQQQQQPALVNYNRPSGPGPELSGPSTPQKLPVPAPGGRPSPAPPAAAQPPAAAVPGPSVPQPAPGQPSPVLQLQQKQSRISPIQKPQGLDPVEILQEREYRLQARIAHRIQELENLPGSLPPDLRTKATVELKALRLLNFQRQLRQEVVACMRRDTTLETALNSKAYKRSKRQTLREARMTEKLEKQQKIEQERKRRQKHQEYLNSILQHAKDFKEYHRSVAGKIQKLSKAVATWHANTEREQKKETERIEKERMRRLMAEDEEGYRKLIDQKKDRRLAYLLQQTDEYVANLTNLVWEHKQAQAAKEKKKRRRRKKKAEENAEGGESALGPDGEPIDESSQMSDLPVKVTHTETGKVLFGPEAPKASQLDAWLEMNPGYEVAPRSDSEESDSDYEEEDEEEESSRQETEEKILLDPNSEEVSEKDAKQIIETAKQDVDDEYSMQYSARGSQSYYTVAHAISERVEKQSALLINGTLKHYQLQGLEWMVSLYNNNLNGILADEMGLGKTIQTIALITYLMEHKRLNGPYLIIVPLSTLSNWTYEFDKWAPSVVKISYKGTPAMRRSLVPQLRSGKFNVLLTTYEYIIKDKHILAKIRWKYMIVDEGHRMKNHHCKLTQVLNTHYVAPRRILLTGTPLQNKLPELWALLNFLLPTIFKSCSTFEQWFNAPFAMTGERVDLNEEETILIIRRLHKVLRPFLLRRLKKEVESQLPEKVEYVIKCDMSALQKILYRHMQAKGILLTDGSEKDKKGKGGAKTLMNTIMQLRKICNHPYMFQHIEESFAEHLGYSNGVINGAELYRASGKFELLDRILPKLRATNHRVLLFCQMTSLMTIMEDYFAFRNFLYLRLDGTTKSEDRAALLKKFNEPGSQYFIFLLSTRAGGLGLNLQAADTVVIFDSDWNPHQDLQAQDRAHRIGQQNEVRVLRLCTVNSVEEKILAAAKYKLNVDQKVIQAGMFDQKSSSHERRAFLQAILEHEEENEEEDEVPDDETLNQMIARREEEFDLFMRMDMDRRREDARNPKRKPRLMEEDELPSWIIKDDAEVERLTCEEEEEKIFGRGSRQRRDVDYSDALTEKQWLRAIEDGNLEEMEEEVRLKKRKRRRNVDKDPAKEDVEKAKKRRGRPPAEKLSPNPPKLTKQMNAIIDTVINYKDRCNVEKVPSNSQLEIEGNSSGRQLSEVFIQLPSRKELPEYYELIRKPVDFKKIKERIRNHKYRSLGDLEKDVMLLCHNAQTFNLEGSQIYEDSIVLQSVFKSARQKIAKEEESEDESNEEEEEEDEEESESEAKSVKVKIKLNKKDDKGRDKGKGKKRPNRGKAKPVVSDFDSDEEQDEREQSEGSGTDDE
Reported Fold Selectivity SMARCA4/2 by item:
Quantity name: Fold Selectivity SMARCA4/2

compound="COC1(C(=O)N(C)C2CCN(CCC3CCN(c4ccc(C5CCC(=O)NC5=O)c(F)c4)CC3)CC2)CCN(c2cnnc(-c3ccccc3O)c2)CC1 (racemic) [Example 71]" quantity_name="Fold Selectivity SMARCA4/2" assay_value=1239
compound="CN(C(=O)C1(c2cnn(C)c2)CCN(c2cnnc(-c3ccccc3O)c2)CC1)C1CCN(CC2CCN(c3ccc(C4CCC(=O)NC4=O)cc3)CC2)CC1 (racemic) [Example 89]" quantity_name="Fold Selectivity SMARCA4/2" assay_value=2634
compound="O=C1CCC(c2ccc(OCC3CCN(C(=O)C4CCN(C(=O)C5(c6ccccc6)CCN(c6cnnc(-c7ccccc7O)c6)CC5)CC4)CC3)cc2)C(=O)N1 (racemic) [Example 14]" quantity_name="Fold Selectivity SMARCA4/2" assay_value=1
compound="O=C1CCC(c2ccc(N3CCC(CNC4CCN(C(=O)C5(c6ccccc6)CCN(c6cnnc(-c7ccccc7O)c6)CC5)CC4)CC3)cc2)C(=O)N1 (racemic) [Example 7]" quantity_name="Fold Selectivity SMARCA4/2" assay_value=1
compound="CN(C(=O)C1(Oc2ccccc2Cl)CCN(c2cnnc(-c3ccccc3O)c2)CC1)C1CCN(C(=O)CN2CCC(c3ccc([C@@H]4CCC(=O)NC4=O)cc3)CC2)CC1 (racemic) [Example 112]" quantity_name="Fold Selectivity SMARCA4/2" assay_value=5

---

Reported Fold Selectivity SMARCA4/2 by item:
biological target: SMARCA2 (Homo sapiens); construct: endogenous in cells; assay: SMARCA2 Cellular Degradation Assay (Western blot analysis on Jess platform); format: cell-based; conditions: ratio DC50 SMARCA4 / DC50 SMARCA2
Quantity name: Fold Selectivity SMARCA4/2

compound=O=C1CC[C@H](c2ccc(N3CCC(CN4CCC5(C4)CN(C(=O)C4(c6ccccc6)CCN(c6cnnc(-c7ccccc7O)c6)CC4)C5)CC3)cc2)C(=O)N1 assay_target="SMARCA2 (Homo sapiens)" assay_value=314.31
compound="CC1(CN2CCC(c3ccc(C4CCC(=O)NC4=O)cc3)CC2)CCN(C(=O)C2(c3ccccc3)CCN(c3cnnc(-c4ccccc4O)c3)CC2)C1 (racemic)" assay_target="SMARCA2 (Homo sapiens)" assay_value=449
compound="CN(C(=O)C1(Oc2ccn(C)n2)CCN(c2cnnc(-c3ccccc3O)c2)CC1)C1CCN(C(=O)CN2CCC(c3ccc([C@@H]4CCC(=O)NC4=O)cc3)CC2)CC1 (racemic)" assay_target="SMARCA2 (Homo sapiens)" assay_value=16
compound="CN(C(=O)C1(Oc2ccccc2)CCN(c2cnnc(-c3ccccc3O)c2)CC1)C1CCN(CC2CCN(c3ccc([C@H]4CCC(=O)NC4=O)cc3)CC2)C2(CC2)C1 (mixture of isomers)" assay_target="SMARCA2 (Homo sapiens)" assay_value=6
compound=Cc1cnn(C2(C(=O)N(C)C3CCN(CC4CCN(c5ccc([C@H]6CCC(=O)NC6=O)cc5)CC4)CC3)CCN(c3cnnc(-c4ccccc4O)c3)CC2)c1 assay_target="SMARCA2 (Homo sapiens)" assay_value=8
compound=CN(C(=O)C1(Oc2ccn(C)n2)CCN(c2cnnc(-c3ccccc3O)c2)CC1)C1CCN(CC2CCN(c3ccc([C@H]4CCC(=O)NC4=O)cc3)CC2)CC1 assay_target="SMARCA2 (Homo sapiens)" assay_value=6
compound=O=C1CC[C@@H](c2ccc(N3CCC(CN4CCC5(C4)CN(C(=O)C4(c6ccccc6)CCN(c6cnnc(-c7ccccc7O)c6)CC4)C5)CC3)cc2)C(=O)N1 assay_target="SMARCA2 (Homo sapiens)" assay_value=336.59
compound="Cn1ccc(OC2(C(=O)N3CCC4(CC3)CN(CCC3CCN(c5ccc(C6CCC(=O)NC6=O)cc5)CC3)C4)CCN(c3cnnc(-c4ccccc4O)c3)CC2)n1 (racemic)" assay_target="SMARCA2 (Homo sapiens)" assay_value=899
compound=O=C1CC[C@H](c2ccc(N3CCC(CN4CC[C@@H](NC(=O)C5(c6ccccc6)CCN(c6cnnc(-c7ccccc7O)c6)CC5)CC45CCC5)CC3)cc2)C(=O)N1 assay_target="SMARCA2 (Homo sapiens)" assay_value=30
compound="O=C1CCC(c2ccc(OC3CCN(C(=O)C4CCN(C(=O)C5(c6ccccc6)CCN(c6cnnc(-c7ccccc7O)c6)CC5)CC4)CC3)cc2)C(=O)N1 (racemic)" assay_target="SMARCA2 (Homo sapiens)" assay_value=1
